tgt: IgE in a panel of sera from 22 patients allergic to ragweed (human)
test_method_notes: competition ELISA; tested as AllerR mix with 22 sera
measurement_kind: highest concentration without competition

binder="AllerR5 (peptide) peptide: TVAFNTFTDNVDQRMPRCRHGFFQVVNNNYDKWGSYAIGGSASPTILSQGNRFCAPDERSKKNVLGRHGE" value_reported="> 10 µM"
binder="VDAKLGTTRLTVSNSLFTQHQFVLLFGAGDENIEDRGMLATVAFNTFTDN [AllerR4.2]" value_reported="> 10 µM"

Just so you know, measured highest concentration without competition for AllerR1 (peptide) peptide: TSGAYNIIDGCWRGKADWAENRKALADCAQGFGKGTVGGKDGDIYTVTSELDDDVANPK came out at > 10 µM
